B1: CPEB3 Ribozyme (parent)
chain: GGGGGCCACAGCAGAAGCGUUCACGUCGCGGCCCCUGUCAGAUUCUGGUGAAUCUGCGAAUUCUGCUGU

- Variants of: B1
- methodDescription: self-cleavage, relative activity (ratio to wild type); higher = more cleavage; co-transcriptional

change | self-cleavage
G50U U64A | 0.954
U53A C54G | 0.586
G3A C54G | 0.25
C39U G58A | 0.873
U61G C63A | 0.673
U38G G56A | 0.722
A8G G41U | 0.254
A15G C57G | 0.259
C6A G56C | 0.225
G30U G56A | 0.218
U21G G28U | 0.0808
C39A G65C | 0.361
G2U C24U | 0.038
U61A | 0.96
U20G U46C | 0.164
C32A G47A | 0.877
C57G G65U | 0.254
C6U C57A | 0.362
U21G C24U | 0.103
C24U G58C | 0.742
G2A G48C | 0.227
C54A C63U | 0.796
